assay.name: in vitro
Type: in vitro ADME
condition.set: isolated enzyme trypsin, pH 7.2
Bridge positions count the residues as written; N and C are the ends. Square brackets hold non-standard residues; d marks the D form. Peptide text beside a SMILES is read from it. Pro(cis-4-guanidino) = NC(N)=N[C@@H]1CN[C@H](C(=O)O)C1
measured.metric: remaining at 4 h, 200 μM (%)
Give just the number in %; leave the unit off.

What measured remaining at 4 h, 200 μM goes with CC[C@H](C)[C@H](NC(=O)[C@H](CCCNC(=N)N)NC(=O)[C@H]1CCC(=O)NCCCC[C@H](NC(=O)[C@H](Cc2ccccc2)NC(=O)[C@H](Cc2c[nH]c3ccccc23)NC(=O)[C@@H]2C[C@H](NC(=N)N)CN2C(=O)[C@@H](NC(=O)[C@@H](N)Cc2ccccc2)C(C)C)C(=O)N[C@@H](CCCCN)C(=O)N[C@@H](Cc2ccccc2)C(=O)N[C@H](CC(C)C)C(=O)N1)C(=O)N[C@@H](CC(C)C)C(N)=O [Peptide 7, FV(4-guanidino)PWF[KKFle]RIL] (H-FV[Pro(cis-4-guanidino)]WFKKF[dL][dE]RIL-NH2; lactam 6-10) ?
10

---

Assay type: cell-based
condition.set: Cell viability (%)
Bridge positions count the residues as written; N and C are the ends. Square brackets hold non-standard residues; d marks the D form. Peptide text beside a SMILES is read from it.
measured.metric: viability at 100 µM (%)
Write down the numeric answer in % and omit the unit.

For the compound CC[C@H](C)[C@H](NC(=O)[C@H](CCCNC(=N)N)NC(=O)[C@H]1CCC(=O)NCCCC[C@H](NC(=O)[C@H](Cc2ccccc2)NC(=O)[C@H](Cc2c[nH]c3ccccc23)NC(=O)[C@@H]2CCCN2C(=O)[C@@H](NC(=O)[C@@H](N)Cc2ccccc2)C(C)C)C(=O)N[C@@H](CCCCN)C(=O)N[C@@H](Cc2ccccc2)C(=O)N[C@H](CC(C)C)C(=O)N1)C(=O)N[C@@H](CC(C)C)C(N)=O [Peptide 2, FVPWF[KKFle]RIL] (H-FVPWFKKF[dL][dE]RIL-NH2; lactam 6-10) , what viability at 100 µM is on record?
5

---

The following compounds are shown together with reported viability at 24 h, 25 µM values.
Format: cell-based
condition.set: Cell viability (%)
Bridge positions count the residues as written; N and C are the ends. Square brackets hold non-standard residues; d marks the D form. Peptide text beside a SMILES is read from it. Pro(cis-4-guanidino) = NC(N)=N[C@@H]1CN[C@H](C(=O)O)C1; Phe(4-guanidino) = N=C(N)Nc1ccc(C[C@H](N)C(=O)O)cc1
The reply should contain only the number, in %.

Some solved cases for reference:
CC[C@H](C)[C@H](NC(=O)[C@H](CCCNC(=N)N)NC(=O)[C@H]1CCCCNC(=N)NCCCC[C@H](NC(=O)[C@H](Cc2ccccc2)NC(=O)[C@H](Cc2c[nH]c3ccccc23)NC(=O)[C@@H]2CCCN2C(=O)[C@@H](NC(=O)[C@@H](N)Cc2ccccc2)C(C)C)C(=O)N[C@@H](CCCCN)C(=O)N[C@@H](Cc2ccccc2)C(=O)N[C@H](CC(C)C)C(=O)N1)C(=O)N[C@@H](CC(C)C)C(N)=O [Peptide 12, FVPWF{KKFlk}RIL] | 14
CC[C@H](C)[C@H](NC(=O)[C@H](CCCNC(=N)N)NC(=O)[C@H]1CCC(=O)NCCCC[C@H](NC(=O)[C@H](Cc2ccccc2)NC(=O)[C@H](Cc2c[nH]c3ccccc23)NC(=O)[C@@H]2C[C@H](NC(=N)N)CN2C(=O)[C@@H](NC(=O)[C@@H](N)Cc2ccccc2)C(C)C)C(=O)N[C@@H](CCCCN)C(=O)N[C@@H](Cc2ccccc2)C(=O)N[C@H](CC(C)C)C(=O)N1)C(=O)N[C@@H](CC(C)C)C(N)=O [Peptide 7, FV(4-guanidino)PWF[KKFle]RIL] (H-FV[Pro(cis-4-guanidino)]WFKKF[dL][dE]RIL-NH2; lactam 6-10) | 34

For the next question, use this compound.
Quick one: viability at 24 h, 25 µM of CC[C@H](C)[C@H](NC(=O)[C@H](CCCNC(=N)N)NC(=O)[C@H]1CCC(=O)NCCCC[C@H](NC(=O)[C@H](Cc2ccccc2)NC(=O)[C@H](Cc2c[nH]c3ccccc23)NC(=O)[C@@H]2CCCN2C(=O)[C@@H](NC(=O)[C@@H](N)Cc2ccc(NC(=N)N)cc2)C(C)C)C(=O)N[C@@H](CCCCN)C(=O)N[C@@H](Cc2ccccc2)C(=O)N[C@H](CC(C)C)C(=O)N1)C(=O)N[C@@H](CC(C)C)C(N)=O [Peptide 6, (p-guanidino)FVPWF[KKFle]RIL] (H-[Phe(4-guanidino)]VPWFKKF[dL][dE]RIL-NH2; lactam 6-10) ?
107
